// Activity lookup, one value per entry
PROTOCOL_SUMMARY: Antioxidant activity assessed as hydroxyl radical scavenging activity at 5 uM after 1 hr by 2-Deoxy-D-ribose degradation assay in presence of FeCl3 and EDTA
Type: functional

COMPOUND: COc1ccc(-n2cnc(C#N)c2/N=C/c2ccc(O)c(OC)c2)cc1
Activity (%): 47
//
COMPOUND: Cn1cnc(C#N)c1N
Activity (%): 54
//
COMPOUND: COc1ccc(-n2cnc(C#N)c2/N=C/c2cc(O)c(O)c(O)c2)cc1
Activity (%): 51
//
COMPOUND: N#Cc1ncn(-c2ccc(F)cc2)c1N
Activity (%): 50
//
COMPOUND: COc1ccc(-n2cnc(C#N)c2/N=C/c2ccc(O)c(O)c2)cc1
Activity (%): 61
//
COMPOUND: Cn1cnc(C#N)c1/N=C/c1ccc(O)c(O)c1O
Activity (%): 54
//
COMPOUND: N#Cc1ncn(-c2ccc(O)cc2)c1N
Activity (%): 47
//
COMPOUND: O=Cc1ccc(O)c(O)c1
Activity (%): 51
//
COMPOUND: COc1ccc(-n2cnc(C#N)c2/N=C/c2c(O)cc(O)cc2O)cc1
Activity (%): 62
//
COMPOUND: COc1ccc(-n2cnc(C#N)c2N)cc1
Activity (%): 46
//
COMPOUND: COc1ccc(-n2cnc(C#N)c2/N=C/c2ccc(O)c(O)c2O)cc1
Activity (%): 57
//
COMPOUND: Cn1cnc(C#N)c1/N=C/c1c(O)cc(O)cc1O
Activity (%): 54
//
COMPOUND: O=Cc1c(O)cc(O)cc1O
Activity (%): 42
//
COMPOUND: N#Cc1ncn(-c2ccc(F)cc2)c1/N=C/c1ccc(O)c(O)c1
Activity (%): 58
//
COMPOUND: N#Cc1ncn(-c2ccc(O)cc2)c1/N=C/c1ccc(O)c(O)c1
Activity (%): 60
//
COMPOUND: N#Cc1ncn(-c2ccc(F)cc2)c1/N=C/c1ccc(O)c(O)c1O
Activity (%): 53
//
COMPOUND: Cc1c(C)c2c(c(C)c1O)CCC(C)(C(=O)O)O2 (stereo unspecified)
Activity (%): 53
//
COMPOUND: Cn1cnc(C#N)c1/N=C/c1cc(O)c(O)c(O)c1
Activity (%): 54
//
COMPOUND: N#Cc1ncn(-c2ccc(O)cc2)c1/N=C/c1ccc(O)c(O)c1O
Activity (%): 38
//
COMPOUND: O=Cc1ccc(O)c(O)c1O
Activity (%): 46
//
COMPOUND: COc1cc(C=O)ccc1O
Activity (%): 37
//
COMPOUND: N#Cc1ncn(-c2ccc(O)cc2)c1/N=C/c1cc(O)c(O)c(O)c1
Activity (%): 49
//
COMPOUND: O=Cc1cc(O)c(O)c(O)c1
Activity (%): 50
//
COMPOUND: Cn1cnc(C#N)c1/N=C/c1ccc(O)c(O)c1
Activity (%): 52
//
COMPOUND: N#Cc1ncn(-c2ccc(O)cc2)c1/N=C/c1c(O)cc(O)cc1O
Activity (%): 55
//
COMPOUND: N#Cc1ncn(-c2ccc(F)cc2)c1/N=C/c1cc(O)c(O)c(O)c1
Activity (%): 54

====

Test system: Radical scavenging activity
PROTOCOL_SUMMARY: Antioxidant activity assessed as DPPH free radical scavenging activity measured as remaining DPPH at 100 uM after 60 mins by spectrophotometric analysis relative to control
Format: functional
Doc: threshold 90% (exclusive). Items with DPPH remaining beneath it return 1.0; others return 0.0.

SAMPLE_SMILES: Cn1cnc(C#N)c1/N=C/c1c(O)cc(O)cc1O
STUDY_TARGET: Radical scavenging activity
DISCRETE_LABEL: 1.0

SAMPLE_SMILES: N#Cc1ncn(-c2ccc(O)cc2)c1/N=C/c1c(O)cc(O)cc1O
STUDY_TARGET: Radical scavenging activity
DISCRETE_LABEL: 1.0

SAMPLE_SMILES: N#Cc1ncn(-c2ccc(F)cc2)c1N
STUDY_TARGET: Radical scavenging activity
DISCRETE_LABEL: 0.0

SAMPLE_SMILES: N#Cc1ncn(-c2ccc(O)cc2)c1N
STUDY_TARGET: Radical scavenging activity
DISCRETE_LABEL: 0.0

SAMPLE_SMILES: COc1ccc(-n2cnc(C#N)c2/N=C/c2c(O)cc(O)cc2O)cc1
STUDY_TARGET: Radical scavenging activity
DISCRETE_LABEL: 1.0

====

Test system: Radical scavenging activity
PROTOCOL_SUMMARY: Antioxidant activity assessed as DPPH free radical scavenging activity measured as remaining DPPH at 100 uM after 60 mins by spectrophotometric analysis relative to control
Type: functional
// DPPH remaining lookup, one value per entry
READOUT: DPPH remaining

SAMPLE_SMILES: COc1ccc(-n2cnc(C#N)c2N)cc1
RESULT_VALUE: 94.2%
--
SAMPLE_SMILES: Cn1cnc(C#N)c1N
RESULT_VALUE: 94.2%
--
SAMPLE_SMILES: COc1cc(C=O)ccc1O
RESULT_VALUE: 97.6%
